Values from patent US4619929A

measurement_notes: Sedative action: orientation hypermotility of mice induced by a new environment (ED 50%)
Format: in vivo, female NMRI mice
measurement_setup: Table 1; mouse, oral administration; read-out: Sedative effect ED 50% (dose which reduces the motility by 50%)
Some molecules, each annotated with its measured ED50.
I only need the number, in mg/kg, no unit after it.

Reference set (4 entries):
1) COc1ccccc1N1CCN(CCCOc2ccccc2-c2nnc(C)o2)CC1 : 20.5
2) COc1ccccc1N1CCN(CCCOc2cccc(-c3nnc(C)o3)c2)CC1 : 3.74
3) COc1ccccc1N1CCN(CCCOc2ccccc2-c2nnco2)CC1 : 16.4
4) COc1ccccc1N1CCN(CCCOc2cccc(-c3nnco3)c2)CC1 : 3.21

q: In one line, give reported ED50 of the entry COc1ccccc1N1CCN(CCCOc2ccc(-c3nnco3)cc2)CC1 .
a: 2.15
